- test system: CIB1 and αIIb interaction (CIB1-GST : F-αIIb peptide) (Homo sapiens, UniProt Q99828)
- Construct: made in house; host or cells: BL-21 plus RIL cells (E. coli)
- Sequence (Q99828 1-191): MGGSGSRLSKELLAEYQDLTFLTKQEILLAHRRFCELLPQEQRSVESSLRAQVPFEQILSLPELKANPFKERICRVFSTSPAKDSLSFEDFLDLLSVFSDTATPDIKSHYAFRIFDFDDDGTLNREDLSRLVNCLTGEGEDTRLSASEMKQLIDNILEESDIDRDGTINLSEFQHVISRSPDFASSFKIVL
- assay explanation: FP assay, 1536-well qHTS format (primary and confirmatory screen)
- Type: binding
- protocol conditions: qHTS primary screen of LOPAC/NPACT libraries; read-out: IC50
Field: label. Allowed values: YES (IC50 < 20 µM) or NO (IC50 >= 20 µM).

Q: Is IC50 of COc1ccc(NC(=O)c2ccc(-c3ccc(-c4noc(C)n4)cc3C)cc2)cc1N1CCN(C)CC1.Cl strictly below 20 µM?
A: YES
